Where do the numbers come from? From paper PMC7419507.

Assay: Cytotoxicity assay (CellTiter-Glo, 72 h), SKOV-3
Type: cell-based, human
Conditions: human, SKOV-3 cells (ovarian adenocarcinoma), conc 0.00610352 uM; raw replicate data; read-out: SKOV3 viability (%)
For each record, write down the corresponding viability at 72 h, 0.00610352 uM.
Report the figure in % without appending any unit label.

Query: Fill in the blank: the reported viability at 72 h, 0.00610352 uM of CO[C@H]1C[C@@H]2CC[C@@H](C)[C@@](O)(O2)C(=O)C(=O)N2CCCC[C@H]2C(=O)O[C@H]([C@H](C)C[C@@H]2CC[C@@H](O)[C@H](OC)C2)CC(=O)[C@H](C)/C=C(\C)[C@@H](O)CC[C@H](C)/C=C/C=C/C=C/1C is ____.
Result: 98.4

Query: Another compound to check: CO[C@H]1C[C@@H]2CC[C@@H](C)[C@@](O)(O2)C(=O)C(=O)N2CCCC[C@H]2C(=O)O[C@H]([C@H](C)C[C@@H]2CC[C@@H](O)[C@H](OC)C2)CC(=O)[C@H](C)/C=C(\C)[C@@H](O)CC(=O)[C@H](C)C[C@H](C)/C=C/C=C(C)/C=C/1C
Result: 105

Query: Another compound to check: CO[C@@H]1/C=C/C=C/[C@@H](C)C[C@@H](C)C(=O)C[C@H](O)/C(C)=C/[C@@H](C)C(=O)C[C@@H]([C@H](C)C[C@@H]2CC[C@@H](O)[C@H](OC)C2)OC(=O)[C@@H]2CCCCN2C(=O)C(=O)[C@]2(O)O[C@@H](CC[C@H]2C)C1
Result: 105

Query: Another compound to check: CO[C@@H]1C[C@H](C[C@@H](C)[C@@H]2CC(=O)[C@H](C)/C=C(\C)[C@@H](O)[C@@H](OC)C(=O)[C@H](C)C[C@H](C)/C=C/C=C/C=C(\C)[C@H](O)C[C@@H]3CC[C@@H](C)[C@@](O)(O3)C(=O)C(=O)N3CCCC[C@H]3C(=O)O2)CC[C@H]1O [Compound 17, (16R)-16-O-demethyl rapamycin]
Result: 103

Query: Another compound to check: CO[C@H]1C[C@@H]2CC[C@@H](C)[C@@](O)(O2)C(=O)C(=O)N2CCCC[C@H]2C(=O)O[C@H]([C@H](C)C[C@@H]2CC[C@@H](O)[C@H](OC)C2)CC(=O)[C@H](C)/C=C(\C)[C@@H](O)[C@@H](OC)C(=O)[C@H](C)C[C@H](C)/C=C/C=C/C=C/1C [Compound 1, rapamycin, reference compound]
Result: 64.7

Query: Another compound to check: COC1CC2CCC(C)C(O)(O2)C(=O)C(=O)N2CCCCC2C(=O)OC(C(C)CC2CCC(O)C(OC)C2)CC(O)CC(=O)C(C)C=C(C)C(O)CC(=O)C(C)CC(C)C=CC=CC=C1C (stereo not drawn)
Result: 104

Query: Another compound to check: COC1CC2CCC(C)C(O)(O2)C(=O)C(=O)N2CCCCC2C(=O)OC(C(C)CC2CCC(O)C(OC)C2)CC(=O)C(C)C=C(C)C(O)C(OC)C(=O)C(C)CC(C)C=CCCC=C1C (stereo not drawn)
Result: 104

Query: Another compound to check: COC1CC2CCC(C)C(O)(O2)C(=O)C(=O)N2CCCCC2C(=O)OC(C(C)CC2CCC(O)C(OC)C2)CC(=O)C(C)C=C(C)C(O)CC(=O)C(C)C=C(C)C=CC=CC=C1C (stereo not drawn)
Result: 103

Query: Another compound to check: COC1CC2CCC(C)C(O)(O2)C(=O)C(=O)N2CCCCC2C(=O)OC(C(C)CC2CCC(O)C(OC)C2)CCC(C)C=C(C)C(O)C(OC)C(=O)C(C)CC(C)C=CC=CC=C1C (stereo not drawn)
Result: 59
